Test system: Rattus norvegicus
assay_details: The maximum fall in systolic blood pressure was determined at a dose of 0.3 mg/kg after oral administration in rats
Assay type: functional, Artery
Could you mark each record true if its Max fall in blood pressure falls strictly under 30%, and false if it equals or exceeds it?

Worked examples, 9 compounds total:
* CC1(C)Oc2ccc(C(F)(F)F)cc2C(N2CCCC2=O)[C@@H]1O (stereo not given in full) | true
* Cc1ccc2c(c1)C(N1CCCCC1=O)[C@H](O)C(C)(C)O2 (stereo not given in full) | true
* CC1(C)Oc2cc[n+]([O-])cc2[C@@H](N2CCCCC2=O)[C@@H]1O | false
* CC1(C)Oc2ccncc2[C@@H](N2CCCCC2=O)[C@@H]1O | false
* CC(=O)N[C@@H]1c2cnccc2OC(C)(C)[C@H]1O | true
* CC(C)c1ccc2c(c1)C(N1CCCC1=O)[C@H](O)C(C)(C)O2 (stereo not given in full) | true
* CC1(C)Oc2ccc(C#N)cc2C(N2CCCC2=O)C1O (stereo not given) | false
* CCc1ccc2c(c1)C(N1CCCC1=O)[C@H](O)C(C)(C)O2 (stereo not given in full) | true
* CC(C)(C)c1ccc2c(c1)C(N1CCCC1=O)[C@H](O)C(C)(C)O2 (stereo not given in full) | true

Now take the following compound into account.
// query Lab note: Max fall in blood pressure threshold 30%. Does this compound come in strictly under it? CC(=O)NC1c2cc(C)ccc2OC(C)(C)[C@H]1O (stereo not given in full)
// result true
